settings: heated to 120° C.
Please go through the items and note down their weight loss.
Return type: number; implicit unit %.

Look at this molecule and give its reported weight loss. C#C[C@]1(CO)O[C@@H](n2cnc3c(N)nc(F)nc32)[C@@H](F)[C@@H]1O [type-IV crystal]
10.6

Recorded weight loss of C#C[C@]1(CO)O[C@@H](n2cnc3c(N)nc(F)nc32)[C@@H](F)[C@@H]1O [type-XV crystal] , please.
2.2

Reported weight loss, molecule C#C[C@]1(CO)O[C@@H](n2cnc3c(N)nc(F)nc32)[C@@H](F)[C@@H]1O [type-XII crystal] : ____
59.6

Recorded weight loss of C#C[C@]1(CO)O[C@@H](n2cnc3c(N)nc(F)nc32)[C@@H](F)[C@@H]1O [type-XI crystal] , please.
19.3
